Data credit: patent US8846705B2

Parameter: pIC50. Scope: all listed entries.
# SYSTEM: rat P2X3 receptor (Rattus norvegicus)
# Sequence (P49654 1-397): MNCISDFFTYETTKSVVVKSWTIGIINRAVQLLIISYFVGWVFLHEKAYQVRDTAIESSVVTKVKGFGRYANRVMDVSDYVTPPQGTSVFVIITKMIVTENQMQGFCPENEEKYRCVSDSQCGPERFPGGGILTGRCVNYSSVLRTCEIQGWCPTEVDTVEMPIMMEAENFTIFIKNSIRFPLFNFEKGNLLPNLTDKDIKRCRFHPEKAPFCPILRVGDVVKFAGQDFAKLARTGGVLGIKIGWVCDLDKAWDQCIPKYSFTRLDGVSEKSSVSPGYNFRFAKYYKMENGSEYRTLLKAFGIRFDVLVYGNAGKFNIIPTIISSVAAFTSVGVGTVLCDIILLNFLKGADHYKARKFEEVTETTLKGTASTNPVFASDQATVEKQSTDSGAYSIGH
pIC50: −log10 of the molar value.

INSERT INTO results (structure, system, measured_result) VALUES
  ('CC(C)c1cc(O)c(I)cc1Oc1cnc(N)nc1N', 'rat P2X3 receptor (Rattus norvegicus)', '~8.30');

Value of pIC50 reported for the compound "COc1cc(C)c(Cc2cnc(N)nc2N)cc1OC" is < 5.00
